Tested on: UACC-62 melanoma
Measurement protocol: NCI tumour cell line growth inhibition, 48 h
The entries below come with measured TGI values attached.
Property label: TGI

Molecule: COc1cc2c(cc1Oc1c(Oc3c(O)c(OC)cc4c3C(CC(C)C)N(C)CC4)c(OC)cc3c1C(CC(C)C)N(C)CC3)C(CC(C)C)N(C)CC2 (stereo not drawn)
Value reported: 4.02 µM
//
Molecule: CCSc1nc(=S)n(-c2ccccc2)c(C)c1C(C)=O
Value reported: > 100 µM
//
Molecule: Cc1nc(/C=C2\C(=O)C=Cc3ccccc32)c(O)o1
Value reported: > 100 µM

* * *

System: SK-MEL-2 melanoma
Measurement protocol: NCI tumour cell line growth inhibition, 48 h
Reported TGI values for a set of compounds

Compound: CC(=O)NC(CSC1=C2NC(=O)\C=C/C=C/C=C\C(C)C(O)CC(=O)/C(C)=C\CC(O)/C=C/C(C)C(O)C(C)C=C(C)C(=O)c3c(O)c(C)cc(c3C1=O)C2=O)C(=O)O (stereo not drawn)
TGI: > 100 µM

Compound: CCCCCCCCP(=O)(O)OP(=O)(O)OCC1OC(n2ccc(N)nc2=O)C(O)C1O (stereo not drawn)
TGI: > 100 µM

Compound: COC1CCC(OC)C(C2(C3CC(OC)CCC3OC)OC(=O)c3ccccc32)C1 (stereo not drawn)
TGI: > 100 µM

* * *

Tested on: RXF 393 renal
Measurement protocol: NCI tumour cell line growth inhibition, 48 h

Molecule: CC(=O)/C=C/C1=C(c2csc3ccccc23)c2ccccc2CC1
GI50: 20.2 µM

Molecule: O=C(c1ccccc1)c1c(C(F)(F)F)n([O-])c2cc(C(F)(F)F)ccc2[n+]1=O
GI50: 1.34 µM

Molecule: CC(C)c1cccc(O)c(=O)c1
GI50: 0.116 µg/mL

Molecule: Clc1ccc2nc(CI)c(CI)nc2c1
GI50: 4.04 µM

Molecule: CC(C)=CC(=O)N[C@H]1CC[C@]2(C)C3CC[C@]4(C)C(C(C)N(C)C)=CCC4C3CCC2[C@H]1O (stereo not given in full)
GI50: 2.7 µM

* * *

Reported TGI values for the following molecules.
System: A549 NSCLC
Measurement protocol: NCI tumour cell line growth inhibition, 48 h
Property label: TGI (µM)

Molecule: COC(=O)/C(C#N)=C(\N)C(Cl)(Cl)Cl
Sign qualifier: =
Value reported: 12.7

Molecule: C[C@]12CC[C@H]3[C@@H](CC4SC(N)=NC45C/C(=N/NC(N)=O)CC[C@]35C)[C@@H]1CCC2=O (some centres undefined)
Sign qualifier: =
Value reported: 3.89

Molecule: C=C1C(=O)O[C@H]2[C@H]1CC/C(COC(=O)OC/C1=C/CC[C@@]3(C)O[C@H]3[C@H]3OC(=O)[C@@H](CN(C)C)[C@@H]3CC1)=C\CC[C@@]1(C)O[C@@H]21
Sign qualifier: =
Value reported: 24.3

Molecule: O=C(OC1CN2CCC1CC2)N(c1ccccc1)c1ccccc1 (centres undefined)
Sign qualifier: >
Value reported: 100

Molecule: NCCCNOCCCN
Sign qualifier: >
Value reported: 100

Molecule: NC(=O)c1cccc(OCC(O)CO)c1 (centres undefined)
Sign qualifier: >
Value reported: 100

Molecule: CC1CC(C)C2OC2(C)C[C@H](C)C(=O)NC(C)C(=O)N(C)[C@H](Cc2c(Br)[nH]c3ccccc23)C(=O)N[C@@H](c2ccc(O)cc2)CC(=O)O1 (some centres undefined)
Sign qualifier: >
Value reported: 100

Molecule: COc1cc(Cc2cnc(N)nc2N)cc(OC)c1OCCCNc1ccc([N+](=O)[O-])cc1
Sign qualifier: =
Value reported: 35.2

Molecule: CN1CCc2c(sc3ncn(Nc4ccc(Cl)cc4)c(=N)c23)C1
Sign qualifier: >
Value reported: 100
